subject-of-test: Ah receptor (AhR) (Mus musculus, UniProt P30561)
Sequence (P30561 10-848): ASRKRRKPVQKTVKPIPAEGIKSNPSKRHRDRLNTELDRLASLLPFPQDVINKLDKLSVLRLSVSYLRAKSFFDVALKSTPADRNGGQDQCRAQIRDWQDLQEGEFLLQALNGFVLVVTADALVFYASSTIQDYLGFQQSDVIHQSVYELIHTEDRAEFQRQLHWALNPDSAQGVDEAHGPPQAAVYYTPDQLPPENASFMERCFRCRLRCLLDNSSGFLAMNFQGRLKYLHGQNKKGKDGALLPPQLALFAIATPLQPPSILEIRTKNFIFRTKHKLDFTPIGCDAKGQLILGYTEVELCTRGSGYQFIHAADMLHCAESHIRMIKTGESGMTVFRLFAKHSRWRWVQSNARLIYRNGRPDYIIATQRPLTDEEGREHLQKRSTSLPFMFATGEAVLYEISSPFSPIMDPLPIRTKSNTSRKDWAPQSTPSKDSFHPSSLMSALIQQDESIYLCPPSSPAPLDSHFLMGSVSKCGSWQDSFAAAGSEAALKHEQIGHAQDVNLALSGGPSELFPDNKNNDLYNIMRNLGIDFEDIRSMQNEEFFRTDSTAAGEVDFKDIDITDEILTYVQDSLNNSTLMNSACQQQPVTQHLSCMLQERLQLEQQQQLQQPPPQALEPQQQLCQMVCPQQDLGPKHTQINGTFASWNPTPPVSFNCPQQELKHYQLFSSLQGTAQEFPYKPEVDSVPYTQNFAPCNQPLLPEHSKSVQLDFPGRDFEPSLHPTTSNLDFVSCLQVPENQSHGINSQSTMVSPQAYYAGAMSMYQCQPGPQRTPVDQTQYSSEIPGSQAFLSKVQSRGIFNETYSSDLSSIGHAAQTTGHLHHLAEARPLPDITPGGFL
protocol-description: yAhR nuclear translocation in yAHAYc6 cells
measured-endpoint: EC50

INSERT INTO results (given_smiles, subject_of_test, observed_measurement) VALUES
  ('Clc1cc2c(cc1Cl)Oc1cc(Cl)c(Cl)cc1O2', 'Ah receptor (AhR) (Mus musculus, UniProt P30561)', '200 pM');
